Tested on: Rattus norvegicus
measurement-notes: Effect on in vivo accumulation of […] was measured in rat corpus striatum at 59(Micromol/kg) dose
Format: functional
Criterion: Activity strictly under 5000 ng/g. Met: YES. Not met: NO.

Qu. Below 5000 ng/g on Activity? Entry CCCN[C@H]1Cc2c(O)cccc2C[C@@H]1C (stereo in doubt; (-)-9)
Ans. NO

Qu. Below 5000 ng/g on Activity? Entry CCCN[C@H]1Cc2c(O)cccc2C[C@@H]1C (racemic)
Ans. NO

Qu. Below 5000 ng/g on Activity? Entry CCCN[C@H]1Cc2c(O)cccc2C[C@H]1C (stereo in doubt; (-)-13)
Ans. NO

Qu. Below 5000 ng/g on Activity? Entry CCCN[C@H]1Cc2c(O)cccc2C[C@H]1C (racemic)
Ans. YES

Qu. Below 5000 ng/g on Activity? Entry CCCN[C@H]1Cc2c(O)cccc2C[C@@H]1C (stereo in doubt; (+)-9)
Ans. YES

###

measured-target: 5-hydroxytryptamine receptor 1A (Rattus norvegicus)
Sequence (P19327 whole entry): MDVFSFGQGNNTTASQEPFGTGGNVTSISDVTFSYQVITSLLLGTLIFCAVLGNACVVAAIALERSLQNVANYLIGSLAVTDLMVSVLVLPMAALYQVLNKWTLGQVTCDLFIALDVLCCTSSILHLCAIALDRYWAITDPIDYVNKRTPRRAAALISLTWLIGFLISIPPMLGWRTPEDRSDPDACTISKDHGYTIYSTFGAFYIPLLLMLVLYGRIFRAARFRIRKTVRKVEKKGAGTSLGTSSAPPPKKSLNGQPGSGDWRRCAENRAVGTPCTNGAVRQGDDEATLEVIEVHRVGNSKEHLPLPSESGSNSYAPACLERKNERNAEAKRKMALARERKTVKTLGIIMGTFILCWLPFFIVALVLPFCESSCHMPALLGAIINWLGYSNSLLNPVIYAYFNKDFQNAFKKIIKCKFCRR
measurement-notes: In vitro Inhibitory activity tested at 5-hydroxytryptamine 1A receptor binding site in rat
Assay type: functional
readout-type: pIC50
Entry type: numeric. Quantity: pIC50, the -log10 of concentration in molar units.

Input CCCN(CCC)[C@H]1Cc2c(O)cccc2C[C@H]1C (racemic) . Output pIC50: 6.11

###

Assign Activity to each entry below.
Test system: Rattus norvegicus
measurement-notes: Effect on in vivo accumulation of […] was measured in rat corpus striatum at 50(Micromol/kg) dose
Assay type: functional

Input CCCN(CCC)[C@H]1Cc2c(O)cccc2C[C@@H]1C (racemic; form 2) . Output Activity: <3871 ng/g

Input CCCN(CCC)[C@H]1Cc2c(O)cccc2C[C@H]1C (stereo in doubt; (-)-15) . Output Activity: 5282 ng/g

Input CCCN(CCC)[C@H]1Cc2c(O)cccc2C[C@H]1C (racemic) . Output Activity: <2935 ng/g

Input CCCN(CCC)[C@H]1Cc2c(O)cccc2C[C@H]1C (stereo in doubt; (+)-15) . Output Activity: <2758 ng/g

###

measured-target: 5-hydroxytryptamine receptor 1A (Rattus norvegicus)
measurement-notes: Inhibitory activity tested in vitro at 5-hydroxytryptamine 1A receptor binding site in rat
readout-type: IC50
Answer by giving the amount and then stating its unit.

Input CCCN(CCC)[C@H]1Cc2c(O)cccc2C[C@@H]1C (stereo in doubt; (+)) . Output IC50: 60.5 nM

Input CCCN(CCC)[C@H]1Cc2c(O)cccc2C[C@H]1C (stereo in doubt; (-)) . Output IC50: 486 nM

Input CCCN(CCC)[C@H]1Cc2c(O)cccc2C[C@H]1C (stereo in doubt; (+)-15) . Output IC50: 2420 nM

Input CCCN(CCC)[C@H]1Cc2c(O)cccc2C[C@H]1C (stereo in doubt; (-)-15) . Output IC50: 486 nM

Input CCCN(CCC)[C@H]1Cc2c(O)cccc2C[C@H]1C (stereo in doubt; (+)) . Output IC50: 2420 nM

Input CCCN(CCC)[C@H]1Cc2c(O)cccc2C[C@@H]1C (stereo in doubt; (+)-11) . Output IC50: 60.5 nM

Input CCCN(CCC)[C@H]1Cc2c(O)cccc2C[C@@H]1C (stereo in doubt; (-)-11) . Output IC50: 1680 nM

Input CCCN(CCC)[C@H]1Cc2c(O)cccc2C[C@@H]1C (stereo in doubt; (-)) . Output IC50: 1680 nM
